This listing pairs variants with measured protein stability index.
B1: SAT2 (parent)
chain: IIKKVAEVALDKGCSQFRLAVLDW

- Variants of: B1
- ASSAY_INFO: protein stability index of a GFP-peptide fusion (GPS, HEK-293T) (PSI 1-6); higher = more stable;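 note: lentivirally expressed fusions sorted by FACS into six bins by GFP to DsRed ratio, PSI derived from sequencing read proportions per bin multiplied by bin number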
- CONDITION_CONTEXT: c terminus: a fixed tail appended
Could you respond with only the numeric value?

Examples with answers:
INSERT INTO assay_data (mutant_code, assay_result) VALUES
  ('S15L', 3.77),
  ('L10N', 1.17),
  ('I2S', 1.98);

Tell me measured protein stability index for `V5A` please.
3.31

Given `S15D` , respond with its protein stability index.
2.74
